Values from PubChem BioAssay (NCI)

tested on: OVCAR-5 ovarian; assay: NCI tumour cell line growth inhibition, 48 h
Could you please report measured TGI for the items listed next?

Record excerpt, results attached:
* COc1cc(-n2cc(-c3ccc(F)cc3)[nH]c2=O)cc(OC)c1OC | > 100 µM
* Cc1cc(S(=O)(=O)Nc2n[nH]c(N)n2)c(SCC(=O)O)cc1Cl | > 10 µM
* N#C/C1=C(\N)CCSSSC1 | > 100 µM
* CCOC(=O)CN1C(=O)c2ccc(NC(=O)C(=O)O)cc2S1(=O)=O | > 100 µM
* CC(=O)c1c(C)n([O-])c2cc(Cl)c(Cl)cc2[n+]1=O | > 100 µM
* Cc1ccnc2[nH]c3ccccc3c(=O)c12 | > 100 µM
* CC1CCC(=O)C(C(=O)CC2CC(=O)N(C)C(=O)C2)C1 (stereo unspecified) | > 100 µM
* Cc1ncc(C(=O)Nc2ccc(CN3CCN(C)CC3)c(C(F)(F)F)c2)cc1C#Cc1cnc(N)c2ccncc12 | 4.53 µM

Can you give me TGI for all of these, one by one?
1. O=C1/C(=C/c2ccc(Cl)cc2)CCC1CCN1CCOCC1 (stereo unspecified)
2. CC1CCC(C(C)C)C(OC(=O)NCn2cc(-c3ccccc3)nn2)C1 (stereo unspecified)

1. > 100 µM
2. > 100 µM

Can you give me TGI for all of these, one by one?
1. CC(O)C1(CNc2cc(Cl)nc(N)n2)CCC1 (stereo unspecified)
2. [Cl][Hg][c]1cc[c]([Hg][Cl])o1

1. > 100 µM
2. 23.9 µM

* * *

Could you please report measured TGI for the items listed next?
system: SNB-75 CNS; experiment: NCI tumour cell line growth inhibition, 48 h
Numbers only, in µM.

* N#CC(C(=O)C(=O)C(C#N)c1ccc(Br)cc1)c1ccc(Br)cc1 (centres undefined) | 17.7
* CC1CCC(C(C)C)C(OC(=O)NCn2cc(-c3ccccc3)nn2)C1 (centres undefined) | 86

Can you give me TGI for all of these, one by one?
1. O=C(/C=C/c1cccc2ccccc12)c1ccccc1Cl
2. C[C@@H]1CC[C@@H]2[C@@H]1[C@H](OC(=O)/C=C/c1ccccc1)[C@]1(C3CCCCC3)C[C@@H](OC(=O)CO)[C@@]2(C)O1

[30.5, 14.7]

* * *

tested on: MDA-N; test: NCI tumour cell line growth inhibition, 48 h
quantity.kind: TGI

Record excerpt, results attached:
• Cc1c2c(C#N)nccc2c(C)c2c1c1ccccc1n2Cc1ccccc1 = > 100 µM
• COC(=O)c1ccccc1/C=C1\Cc2ccc(C)c(C)c2C1=O = > 100 µM
• O=C(O)C(NCc1ccccc1)C(NCc1ccccc1)C(=O)O (stereo unspecified) = > 100 µM
• CC1OC(OC2C(O)COC(OC3C(C)OC(OC4C(OC(=O)[C@]56CCC(C)(C)C[C@@H]5C5=CCC7[C@@]8(C)C[C@H](O)[C@H](OC9OC(CO)C(O)C(O)C9O)[C@@](C)(CO)[C@@H]8CC[C@@]7(C)[C@]5(C)CC6)OCC(O)C4O)C(O)C3OC3OCC(O)(CO)C3O)C2O)C(O)C(O)C1O (stereo partly specified) = 32.5 µM
• CN(CC(=O)O)c1ncc2c(n1)CCCC2 = > 100 µM

Can you give me TGI for all of these, one by one?
1. Cc1ccnc2[nH]c3ccccc3c(=O)c12
2. COC(CNC(=O)C(C)NC(=O)/C=C/c1ccccc1)OC (stereo unspecified)
3. O=[N+]([O-])/C(C(Cl)=C(Cl)Cl)=C(/Cl)Sc1ccccc1
4. O=C1Nc2ccccc2/C1=N\[O-].O=C1Nc2ccccc2/C1=N\[O-].[Cu+2]
5. Nc1ncnc2c1ncn2[C@@H]1C[C@@H]1CO
6. CCOC(=O)CC[C@H](NC(=O)[C@H](N)Cc1ccc(N(CCCl)CCCl)cc1)C(=O)OCC

1. 47 µM
2. > 100 µM
3. 3.78 µM
4. > 100 µM
5. > 100 µM
6. > 50.8 µM
